Method Notes: Mouse pharmacokinetics after oral administration
Format: in vivo
Condition Summary: whole blood, 10 mg/kg
Quantity Measured: Tmax (min)
Reply numerically in min, unit not repeated.

stdin: Returns the measured Tmax for the input compound. Input: Cc1nc(Nc2ccc(S(F)(F)(F)(F)F)cc2)c2c(C)noc2n1
stdout: 45

----------
Method Notes: Mouse pharmacokinetics after oral administration
Type: in vivo
Condition Summary: whole blood, 10 mg/kg
Quantity Measured: AUC(0-inf) (µM·h)
// return numeric value only (unit: µM·h, not printed)

stdin: Item Cc1nc(Nc2ccc(S(F)(F)(F)(F)F)cc2)c2c(C)noc2n1 has what recorded AUC(0-inf)?
stdout: 3.8

----------
Method Notes: In vitro metabolism in mouse liver microsomes
Type: in vitro ADME
Condition Summary: predicted hepatic extraction ratio, mouse liver microsomes
Quantity Measured: predicted Eh (M)

Examples with their reported predicted Eh (M) follow.
Compound	predicted Eh (M)
Cc1noc2nc(C(F)(F)F)nc(Nc3ccc(C(F)(F)F)cc3)c12	0.61
Cc1nc(Nc2ccc(C(F)(F)F)nc2)c2c(C)noc2n1	0.36
Cc1nc(Nc2ccc(S(F)(F)(F)(F)F)cc2)c2c(C(F)(F)F)noc2n1	0.76
Cc1nc(Nc2ccc(S(F)(F)(F)(F)F)cc2)c2c(C)noc2n1	0.63
Cc1noc2nc(C(F)(F)F)nc(Nc3ccc(S(F)(F)(F)(F)F)cc3)c12	0.53
Cc1nc(Nc2ccc(C(F)(F)F)cc2)c2c(C(F)(F)F)noc2n1	0.77
Cc1nc(NC2CCc3cc(Cl)ccc3C2)c2c(C)noc2n1 (stereo not shown)	0.89
Cc1nc(Nc2ccc(C(F)(F)F)cc2)c2c(C)noc2n1	0.55
Cc1nc(NC2CCc3ccc(Br)cc3C2)c2c(C)noc2n1 (stereo not shown)	0.91
Cc1nc(NC2CCc3cc(Br)ccc3C2)c2c(C)noc2n1 (stereo not shown)	0.86

stdin: // predicted Eh (M) lookup, key: Cc1nc(NC2CCc3ccc(Cl)cc3C2)c2c(C)noc2n1 (stereo not shown)
stdout: 0.89

stdin: Also, Cc1nc(NC2Cc3cc(F)c(F)cc3C2)c2c(C)noc2n1 please.
stdout: 0.86

stdin: Another compound: Cc1nc(NC2Cc3cc(F)c(F)cc3C2)c2c(C(F)(F)F)noc2n1
stdout: 0.93
